- target-or-system: T1, soluble human insulin receptor-immunoglobulin heavy chain chimera (sIR-Fc; Bass et al., 1996) (human, UniProt P06213 28-956, limits assumed)
- T1 construct: extracellular domain; also called soluble IR (Bass construct); not shown: immunoglobulin heavy chain constant domains
- experiment-summary: phage ELISA
Each entry below carries its recorded Ratio over Background.

Solved entries (count: 2):
{"binder": "GVRAMSFYDALVSVLGLGPSG [20E2B-1-A6-IGFR]", "result": 1.1}
{"binder": "TSEVQRRSQDNFYDWFVAQVA [A6S-3-E2-IR]", "result": 9.8}

INPUT: Provide one value: measured Ratio over Background of RQGTGSFYLMLEQLLVGARGP [20E2B-4-G11-IGFR]
OUTPUT: 0.6

INPUT: Specify measured Ratio over Background for GAPVDQLHEDFYDWFVRQVSQAATG [H2CA-2-B2-IGFR] .
OUTPUT: 1
